Experiment: NCI Yeast Anticancer Drug Screen. Data for the cln2 rad14 strain (AID 165);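 note: 0% = growth equal to vehicle treated cultures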
Conditions: S. cerevisiae cln2 rad14 strain, at 50.0 µM, stronger effect = higher value
The panel holds about 79,000 compounds, 15% with a hit somewhere; the sample as a whole holds those more often.
Classification field: true (1) = growth inhibition at or over 20%; false (0) = growth inhibition under 20%.

Molecule: CCCCCCCCCCCCCCCC[N+](C)(C)C(C)c1ccc(OC)cc1 (stereo unspecified)
Class: true (1)
//
Molecule: CC(=O)OCc1cc(=O)n(C)c2c3c4c(cc12)c(C)cc(=O)n4CO3
Class: true (1)
//
Molecule: O=c1c2c3c(sc2nc2n1N=C(c1ccc(Br)cc1)CS2)CCCC3
Class: false (0)
//
Molecule: C/C(=N/O)C1CC(CCC2([N+](=O)[O-])CCC(C)(O)C(/C(C)=N/O)C2)([N+](=O)[O-])CCC1(C)O (stereo unspecified)
Class: false (0)
//
Molecule: CC(C)SC(=S)Nc1cc(Cl)c(Cl)cc1Cl
Class: true (1)
//
Molecule: CCOC1=Cc2c(oc3c(C(C)(C)C)cc(OCC)cc23)OC(C(C)(C)C)=C1
Class: true (1)
//
Molecule: Oc1cc(Br)cc2cc(Cl)cnc12
Class: true (1)
//
Molecule: Cc1nc(N)sc1N=Nc1ccc(Cl)cc1Cl
Class: true (1)
//
Molecule: CCC(C)(O)Cc1cnccn1 (stereo unspecified)
Class: false (0)
//
Molecule: C=CCC1(OC(C)=O)CC2C(=O)C(=O)C(C1)N2OC(=O)c1ccccc1 (stereo unspecified)
Class: true (1)
//
Molecule: COc1cc(NCc2ccc3nc(-c4ccccc4)c(N)nc3c2)cc(OC)c1OC
Class: false (0)

----------
Experiment: NCI Yeast Anticancer Drug Screen. Data for the cln2 rad14 strain (AID 165);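 note: 0% = growth equal to vehicle treated cultures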
Settings: S. cerevisiae cln2 rad14 strain, at 50.0 µM (retest, dose inferred, filed as 5.0), stronger effect = higher value
The panel holds about 79,000 compounds, 15% with a hit somewhere; the sample as a whole holds those more often.
Where growth inhibition equals or exceeds 80%, the correct label is TRUE; where it does not, the label is FALSE.

Compound: O=C(COc1ccc(Cl)cc1)OCCO
Class: FALSE
--
Compound: COc1ccc2c(c1)O[C@H]1c3ccc(O)cc3OC[C@@H]21
Class: FALSE
--
Compound: CN(C)c1ccc(-c2c(C#N)c(-c3ccccc3)n(NS(=O)(=O)c3ccccc3)c(=O)c2C#N)cc1
Class: FALSE
--
Compound: Nc1nnc(CCC(=O)Nc2ccccc2Cl)o1
Class: FALSE
--
Compound: CN=C(NC1CCCCC1)c1ccc(NC(=O)c2ccc(C(=O)Nc3ccc(C(=NC)NC4CCCCC4)cc3)cc2)cc1
Class: FALSE
--
Compound: C=C1CC(C)(C)C(c2ccccc2)OC1=O (stereo not given)
Class: FALSE
--
Compound: Cc1cc(C2CCCCC2)n(O)c(=O)c1
Class: TRUE
--
Compound: CCn1nc(-c2ccccc2)c2c1N(C)c1ccccc1-n1c(-c3ccccc3)nnc1-2
Class: TRUE
--
Compound: CC(C)N(C(=O)C12C3C4C1C1C2C3C41I)C(C)C (stereo not given)
Class: FALSE
--
Compound: Cc1c2ncccc2cc2oc3ccccc3c(=O)c12
Class: FALSE
--
Compound: CCOC(=O)/C(C#N)=C\c1ccc(N(CCC(=O)O)CCC(=O)O)c(I)c1
Class: FALSE
--
Compound: O=C1NC(c2ccccc2)(c2ccccc2)C(=O)N1SC(Cl)(Cl)Cl
Class: TRUE
--
Compound: Nc1c(Cl)[nH]c(C(F)(F)F)nc1=S
Class: FALSE
--
Compound: OCC1CC[N-]CC1.OCC1CC[N-]CC1.[Cl][Pt+2]([Cl])([Cl])[Cl]
Class: TRUE
--
Compound: O=C1CC(c2ccccc2)NN1 (stereo not given)
Class: TRUE
--
Compound: NC(=Nc1ccccc1)SCc1ccc([N+](=O)[O-])cc1
Class: FALSE
--
Compound: CCC(C)(C[NH-])C[NH-].[Cl][Pt+2][Cl]
Class: FALSE
--
Compound: C/C(C=C(C#N)C#N)=C\c1ccc([N+](=O)[O-])cc1
Class: FALSE
--
Compound: O=C(Nc1ccc(O)cc1O)c1ccccc1
Class: FALSE
--
Compound: CC(=O)C1CCCCC1/C=C/[N+](=O)[O-] (stereo not given)
Class: FALSE
--
Compound: O=C1c2ccccc2C(=O)N1/N=C\c1ccccc1[N+](=O)[O-]
Class: FALSE
--
Compound: CC1CCC(SC2CC(=O)CCC2=O)CC1 (stereo not given)
Class: TRUE
--
Compound: CC(CO)CCC(=O)C(C)C1C(=O)CC2CC3CC(O)CCC3(C)CC21C (stereo not given)
Class: TRUE
--
Compound: Nc1ccccc1C(=O)/C=C/c1ccccc1
Class: FALSE
--
Compound: O=C(Oc1c([N+](=O)[O-])cc(-c2ccc([N+](=O)[O-])cc2)cc1[N+](=O)[O-])c1ccccc1
Class: FALSE
--
Compound: Fc1ccc2c(c1)Nc1cc(F)cc(F)c1S2
Class: FALSE
--
Compound: O=[N+]([O-])/C(Cl)=C(\Sc1ccccc1)C(Cl)=C(Cl)Cl
Class: TRUE
--
Compound: Nc1cn(C2OC(CC(c3ccccc3)(c3ccccc3)c3ccccc3)C(O)C2O)c(=O)[nH]c1=O (stereo not given)
Class: TRUE
--
Compound: C=C1CC[C@H]2C(C)=CC[C@@H]3[C@H](OC(=O)[C@H]3CN3CCN(c4ccc(C)c([N+](=O)[O-])c4)CC3)[C@@H]12
Class: FALSE
--
Compound: OC(C1CCCC1=N/N=C1/CCCC1C(O)(C(F)(F)Cl)C(F)(F)Cl)(C(F)(F)Cl)C(F)(F)Cl (stereo not given)
Class: FALSE
--
Compound: COc1ccc(C2=NN(c3ccccc3)C[N+](c3ccc(C)cc3)=N2)cc1
Class: TRUE
--
Compound: CC(C)CCOC(=O)c1ccc(O)cc1.[Zn+2]
Class: FALSE
--
Compound: Clc1nc(Cl)nc(N2CCCc3ccccc32)n1
Class: FALSE
--
Compound: COc1cc(/C=C/C(=O)Sc2ccccc2)cc(OC)c1O
Class: FALSE
--
Compound: COc1cccc2c1C(=O)c1c(O)c3c(c(O)c1C2=O)C[C@@](O)(C(=O)CO)C[C@@H]3OC1CC(N)CC(C)O1 (stereo not given in full)
Class: TRUE
--
Compound: CCN(CC)C(=O)C(C)OC(C)=O (stereo not given)
Class: FALSE
--
Compound: COc1ccccc1NC(=O)C1=CNC(C)=C(C(=O)Nc2ccccc2OC)C1/C=C/c1ccccc1 (stereo not given)
Class: FALSE
--
Compound: CCCCCCCCCCCCOCC[N+](CCO)(CCO)Cc1ccccc1
Class: TRUE
--
Compound: CC(SC1=CC(=O)c2c(Cl)ccc(O)c2C1=O)C(=O)O (stereo not given)
Class: FALSE
--
Compound: O=[N+]([O-])/C(C(Cl)=C(Cl)Cl)=C(/Nc1ccccc1)SCc1ccccc1
Class: TRUE
--
Compound: COC(=O)/C=C1/OC(c2ccccc2)=CC1=O
Class: FALSE
--
Compound: c1ccc(-n2c3ccccc3c3ccccc32)cc1
Class: FALSE
--
Compound: CC(C)(S[S-])S[S-].[Ti].[c-]1[c-][c-][cH-][c-]1.[c-]1[c-][c-][cH-][c-]1
Class: TRUE
--
Compound: CC(O)CCc1nc2ccccc2[nH]1 (stereo not given)
Class: FALSE
--
Compound: COC(=O)c1cc2c(oc1=O)-c1ccccc1N(C=O)C2
Class: FALSE
